- Measured On: Bromodomain testis-specific protein (Homo sapiens, UniProt Q58F21)
- Protocol Text: Binding affinity to human partial length BRDT bromodomain 1 (N21 to E137 residues) expressed in bacterial expression system by BROMOscan assay
pKd: −log10 of the molar value.
Reported Property: pKd

[[record]]
compound = "Cc1sc2c(c1C)C(c1ccc(Cl)cc1)=N[C@@H](CC(=O)NCCCCNC(=O)COc1cccc3c1C(=O)N(C1CCC(=O)NC1=O)C3=O)c1nnc(C)n1-2 (stereo partly specified)"
readout_value = "7.72 to 8.22"

